assay: NCI Yeast Anticancer Drug Screen. Data for the cln2 rad14 strain (AID 165);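 note: 0% = growth equal to vehicle treated cultures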; conditions: S. cerevisiae cln2 rad14 strain, hits give high values; at 50.0 µM unless noted
This is part of a sample that, as a whole, favours compounds with a hit. Of some 79,000 tested, about 15% had one in any assay. Where a SMILES comes first, the peptide text is derived from it. Bridges are numbered along the chain shown (N, C = ends). [ ]: non-standard residue; d: D form. Aib = CC(C)(N)C(=O)O; βAla = NCCC(=O)O
READOUT_LABEL: growth inhibition (%)
Please give a number only; it is taken to be in %.

Example entries and their recorded answers appear below.
**Query** Tell me the measured growth inhibition of COc1ccc(OC(C)C(=O)O)c2c(=O)ccccc12 (stereo unspecified) , please.
**Result** 25.2

**Query** Tell me the measured growth inhibition of CCOC(=O)CON=c1c2ccccc2ccc2ccccc12 , please.
**Result** 3.4

**Query** Tell me the measured growth inhibition of NC(=S)N/N=C1\CCCc2ccccc21 , please.
**Result** 41.9

Next:
**Query** Tell me the measured growth inhibition of C=CCOC(=O)C(C)OC(=O)CCC(=O)OC(C)C(=O)OCC=C (stereo unspecified) , please.
**Result** 3.95

**Query** Tell me the measured growth inhibition of CC1(C)NC(=O)C(NC(=O)C(N)CC(=O)O)CCCCNC(=O)CCNC1=O (stereo unspecified) (H-DK[Aib][βAla]; lactam 2-C; configuration not given here) , please.
**Result** -10.6
